These measurements were taken from patent US20250368734A1.

Listed below: MFI values for each entry.
# Tested system: T1, mouse GPRC5D (mouse, UniProt Q9JIL6 1-344)
# T1 construct: whole, on cells; HEK293T-mGPRC5D cells; also called mGPRC5D; murine GPRC5D
# T1 sequence (looked up): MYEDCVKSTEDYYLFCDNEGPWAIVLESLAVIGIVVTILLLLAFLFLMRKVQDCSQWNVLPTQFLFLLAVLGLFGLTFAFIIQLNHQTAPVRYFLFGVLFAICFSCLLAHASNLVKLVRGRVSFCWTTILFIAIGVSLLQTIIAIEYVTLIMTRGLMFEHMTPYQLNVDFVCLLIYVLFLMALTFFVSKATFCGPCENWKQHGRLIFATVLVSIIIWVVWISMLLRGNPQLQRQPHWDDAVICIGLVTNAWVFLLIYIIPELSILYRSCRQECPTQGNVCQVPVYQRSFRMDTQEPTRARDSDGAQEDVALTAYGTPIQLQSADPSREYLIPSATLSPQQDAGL
# Assay explanation: FACS, HEK293T-mGPRC5D cells; note: test concentration or dose not given here
Just the number, please, no unit attached.

These recorded examples may help you get a feel for the data.
INSERT INTO assay_data (binder, measured_parameter, reported_result) VALUES
  ('26E2H6 (antibody, V domains shown, Mouse monoclonal antibody from hybridoma subclone) VH: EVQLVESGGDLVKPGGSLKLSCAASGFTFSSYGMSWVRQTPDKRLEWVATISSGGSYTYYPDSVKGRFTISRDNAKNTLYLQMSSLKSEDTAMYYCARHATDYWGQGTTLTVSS VL: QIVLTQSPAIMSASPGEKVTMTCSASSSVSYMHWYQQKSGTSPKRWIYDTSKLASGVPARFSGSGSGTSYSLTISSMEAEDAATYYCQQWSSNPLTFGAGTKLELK', 'MFI', 370),
  ('20C4E1 (antibody, V domains shown, Mouse monoclonal antibody from hybridoma subclone) VH: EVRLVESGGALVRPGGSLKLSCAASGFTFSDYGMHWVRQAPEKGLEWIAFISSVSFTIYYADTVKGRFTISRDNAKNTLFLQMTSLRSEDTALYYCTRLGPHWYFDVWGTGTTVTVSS VL: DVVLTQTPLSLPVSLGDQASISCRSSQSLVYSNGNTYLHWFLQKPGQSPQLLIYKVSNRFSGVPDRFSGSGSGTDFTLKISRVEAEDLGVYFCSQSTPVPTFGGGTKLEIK', 'MFI', 592);

Moving on to the next binder.
Query ATG596 (antibody, V domains shown, Human IgG1; also called benchmark antibody ATG596; positive human IgG1 control antibody) VH: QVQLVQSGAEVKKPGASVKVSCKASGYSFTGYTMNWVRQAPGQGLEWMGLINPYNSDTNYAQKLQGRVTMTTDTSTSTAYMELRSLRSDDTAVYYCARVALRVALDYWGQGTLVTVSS VL: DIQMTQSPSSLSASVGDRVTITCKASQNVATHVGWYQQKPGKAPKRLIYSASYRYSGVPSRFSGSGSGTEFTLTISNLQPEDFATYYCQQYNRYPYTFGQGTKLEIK yields MFI of 14600
